Every entry's value here was drawn from PubChem BioAssay AID602123.

- Test System: Lon protease (Escherichia coli (strain K12)) (UniProt P0A9M0)
- Sequence (P0A9M0 whole entry, looked up): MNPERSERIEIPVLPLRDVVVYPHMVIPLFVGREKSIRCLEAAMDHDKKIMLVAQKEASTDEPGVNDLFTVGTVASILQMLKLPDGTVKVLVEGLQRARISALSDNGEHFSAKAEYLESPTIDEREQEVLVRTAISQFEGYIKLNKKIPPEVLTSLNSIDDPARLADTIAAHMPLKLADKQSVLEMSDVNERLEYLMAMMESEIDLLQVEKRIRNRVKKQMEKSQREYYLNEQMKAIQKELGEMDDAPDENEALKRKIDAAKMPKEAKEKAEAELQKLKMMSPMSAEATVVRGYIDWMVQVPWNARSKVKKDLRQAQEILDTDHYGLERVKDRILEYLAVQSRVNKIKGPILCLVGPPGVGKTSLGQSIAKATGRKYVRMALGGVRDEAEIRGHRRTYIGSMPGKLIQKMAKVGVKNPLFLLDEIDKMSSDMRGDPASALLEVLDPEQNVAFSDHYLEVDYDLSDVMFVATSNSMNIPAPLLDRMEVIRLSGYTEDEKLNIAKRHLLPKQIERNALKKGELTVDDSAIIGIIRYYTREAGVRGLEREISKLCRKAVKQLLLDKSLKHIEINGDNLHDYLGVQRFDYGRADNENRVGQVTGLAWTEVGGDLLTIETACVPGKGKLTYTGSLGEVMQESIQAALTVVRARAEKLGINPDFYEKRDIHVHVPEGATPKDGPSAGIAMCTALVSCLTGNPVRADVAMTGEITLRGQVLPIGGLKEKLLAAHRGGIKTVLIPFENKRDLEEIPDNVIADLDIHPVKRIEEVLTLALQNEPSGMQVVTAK
- Protocol Description: inhibitors of E. coli Lon protease, primary screen, biochemical, fluorescence polarization (AID 602123);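 note: 0% = enzyme with probe and DMSO and 100% = no enzyme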
- Run Conditions: purified E. coli Lon protease, at 7.94 µM, active compounds read high
Among all 360,000 compounds or so, about 1,500 (0.42%) were called active. Shown is part of a subset that was picked to be rich in actives.
Reported Endpoint: inhibition (%)
Give the quantity in %, number only.

* Cc1cccc(C)c1N1CCN(S(=O)(=O)N2CCOCC2)CC1 | 21.5
* Cc1cccn2c(CNCC(C)Oc3cccnc3)c(C(=O)N3CCOCC3)nc12 (stereo not drawn) | -6.22
* C=CCn1c(=S)sc2c(=O)[nH]c(C)nc21 | 5.17
* O=C(C1CCCO1)N1CCN(C(=S)NC2CC2)CC1 (stereo not drawn) | -2.14
* O=C(CN1CCCSc2ccccc21)N1CCN(S(=O)(=O)c2cccc(F)c2)CC1 | 19.9

inhibition for COc1ccc(N(CC(=O)NC2CCCC2)C(=O)CS(=O)CC(=O)Nc2ccc3c(c2)OCO3)cc1 (stereo not drawn) ?
0.46

# inhibition lookup, item CCCOn1c(-n2nc(C)cc2C)nc2ccccc2c1=O
-4.29

Entry COc1ccc(-c2cc3nc(NCCOc4ccccc4)ccn3n2)cc1 has what inhibition?
5.17

Report inhibition for CNc1cnc(-c2cc(OC)c(OC)c(OC)c2)cn1 please.
1.98

Query: inhibition; subject: O=C(COC(=O)Cn1cnc2ccccc21)Nc1cccc2c1C(=O)c1ccccc1C2=O
49.2
